property_name: logP

- smiles_code: "CC(C)(C)OCCO"
  reported_value: 0.39

###

Measured logD, listed per entry for reference.
- assay_protocol: method code SF-HPLC, from DOI: 10.1016/s0024-3205(00)00615-9, PMID: 10901288
- condition_notes: pH 5.0

- smiles_code: "CCN(CC)C(=O)C(C#N)=Cc1cc(OC(=O)NC(C)(C)C)c(O)c([N+](=O)[O-])c1"
  logD: 1.8
- smiles_code: "CCNC(=O)Oc1cc(/C=C(\\C#N)C(=O)N(CC)CC)cc([N+](=O)[O-])c1O"
  logD: 0.82
- smiles_code: "CCCCNC(=O)Oc1cc(/C=C(\\C#N)C(=O)N(CC)CC)cc([N+](=O)[O-])c1O"
  logD: 1.98
